Test system: U937 cells
Test: Inhibitory activity against TNF-α induced programmed cell necrosis (U937 cells, CellTiter-Glo)
Assay type: cell-based, human
Conditions: U937 cells, human TNF-α and Q-VD-Oph induced necrosis, 48 hours, survival rate; read-out: U937 IC50
Checkbox rule: IC50 lower than 9 nM = fulfilled; IC50 not lower than 9 nM = not fulfilled.

Given CC(c1ccc(F)cc1)n1cc(N2CCc3ncc(-c4ccn5nc(N)nc5c4)cc3C2=O)cn1 (centres unmarked) , is recorded IC50 strictly lower than 9 nM? fulfilled

Given `CC(=O)Nc1cn2nc(-c3cnc4c(c3)C(=O)N(Cc3cc(F)ccc3CN3CCOCC3)CC4)ccc2n1` , is recorded IC50 strictly lower than 9 nM? not fulfilled

Given CC(=O)Nc1nc2cc(-c3cnc4c(c3)C(=O)N(C(C)c3ccccc3OC(F)(F)F)CC4)ccn2n1 (centres unmarked) , is recorded IC50 strictly lower than 9 nM? not fulfilled

Given C[C@@](O)(C(=O)N1C[C@@H](N2CCc3ncc(-c4cc(C(F)(F)F)c5c(N)ncnn45)cc3C2=O)[C@@H](F)C1)C(F)(F)F (single isomer, unassigned) [Z27-2] , is recorded IC50 strictly lower than 9 nM? fulfilled

Given Cc1cc(-c2cnc3c(c2)C(=O)N([C@@H]2CN(C(=O)[C@@](C)(O)C(F)(F)F)C[C@@H]2F)CC3)n2ncnc(N)c12 (single isomer, unassigned) [Z30-2] , is recorded IC50 strictly lower than 9 nM? fulfilled

Given `Nc1nc2cc(-c3cc4c(nc3Cl)CCN(Cc3cc(OC(F)(F)F)ccc3F)C4=O)ccn2n1` , is recorded IC50 strictly lower than 9 nM? fulfilled

Given C[C@@H](c1ccc(F)cc1)n1cc(N2CCc3ncc(-c4ccn5nc(N)nc5c4)cc3C2=O)cn1 (single isomer, unassigned) , is recorded IC50 strictly lower than 9 nM? not fulfilled

Given `CC(=O)Nc1cn2nc(-c3cnc4c(c3)C(=O)N(Cc3ncccc3OC3CCOCC3)CC4)ccc2n1` , is recorded IC50 strictly lower than 9 nM? not fulfilled

Given CC(c1cc(F)ccc1-c1cnn(C)c1)N1CCc2ncc(-c3ccn4nc(N)nc4c3)cc2C1=O (centres unmarked) , is recorded IC50 strictly lower than 9 nM? not fulfilled

Given C[C@@](O)(C(=O)N1C[C@@H](N2CCc3ncc(-c4cc(C(F)(F)F)c5c(N)ncnn45)cc3C2=O)[C@@H](F)C1)C(F)(F)F (mixture of isomers) [Z27] , is recorded IC50 strictly lower than 9 nM? fulfilled

---

Biological target: RIPK1 (Homo sapiens, UniProt Q13546)
Sequence (Q13546 1-671): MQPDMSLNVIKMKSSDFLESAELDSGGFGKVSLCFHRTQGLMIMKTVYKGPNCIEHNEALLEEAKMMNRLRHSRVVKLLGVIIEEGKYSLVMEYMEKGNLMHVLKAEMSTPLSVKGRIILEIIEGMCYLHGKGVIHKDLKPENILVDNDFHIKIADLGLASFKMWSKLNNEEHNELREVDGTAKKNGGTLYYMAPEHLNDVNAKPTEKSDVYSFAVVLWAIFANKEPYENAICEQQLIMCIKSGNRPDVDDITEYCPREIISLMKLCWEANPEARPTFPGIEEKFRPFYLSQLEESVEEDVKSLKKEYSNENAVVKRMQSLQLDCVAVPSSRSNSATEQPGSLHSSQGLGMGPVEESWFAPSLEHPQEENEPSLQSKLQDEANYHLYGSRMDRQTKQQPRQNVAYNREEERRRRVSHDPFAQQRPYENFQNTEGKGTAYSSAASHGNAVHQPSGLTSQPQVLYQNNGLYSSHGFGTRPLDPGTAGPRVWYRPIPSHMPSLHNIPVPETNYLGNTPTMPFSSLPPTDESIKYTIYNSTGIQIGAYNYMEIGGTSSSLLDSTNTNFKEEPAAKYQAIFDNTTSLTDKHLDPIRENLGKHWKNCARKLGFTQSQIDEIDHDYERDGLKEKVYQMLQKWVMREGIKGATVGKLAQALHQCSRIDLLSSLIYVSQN
Provide the reported pIC50 of each item.
By convention, pIC50 is the negative base-10 log of a molar concentration.

Notebook: `Cc1c(-c2ccc(F)cc2CN2CCc3ncc(-c4ccn5nc(N)nc5c4)cc3C2=O)cnn1C` , pIC50 read as 7.30

Notebook: `O=C(Nc1cn2nc(-c3cnc4c(c3)C(=O)N(Cc3ccccc3OC(F)(F)F)CC4)ccc2n1)C1CC1` , pIC50 read as 7.25

Notebook: C[C@H](c1cc(F)ccc1-c1cnn(C)c1)N1CCc2ncc(-c3ccn4nc(N)nc4c3)cc2C1=O (single isomer, unassigned) , pIC50 read as 7.47

Notebook: `Nc1nc2cc(-c3cnc4c(c3)C(=O)N(Cc3cc(F)cc(F)c3OC3CC3)CC4)ccn2n1` , pIC50 read as 7.48
